biological target: HRgpA-6H (Porphyromonas gingivalis) (UniProt P28784); test: ELISA, coated HRgpA-6H
Label Met when OD450 nm is at or above 0.7; anything below gets Not met.

INSERT INTO assay_data (binder, assigned_category) VALUES
  ('KB001 mouse Fab VL S28T/S12R (Fab, V domains shown) VH: EVQLKQSGPGLVAPSQSLSITCTVSGFSLSIYSVHWVRQPPGKGLEWLGMIWGGGSSDYNSALKSRLSISKDNSKSQVFLKMNSLQTDDTAMYYCARNGNFYAMDYWGQGTSVTVSS VL: QIVLTQSPAIMRASLGERVTMTCTASSTVSSSFLHWYQQKPGSSPQLWIYSTSNLASGVPARFSGSGSGTSYSLTISSMEAEDAATYYCHQYHHSPYIYTFGGGTKLEIK', 'Met');

Reported OD450 nm at or above 0.7? KB001 mouse Fab VL S53K (Fab, V domains shown) VH: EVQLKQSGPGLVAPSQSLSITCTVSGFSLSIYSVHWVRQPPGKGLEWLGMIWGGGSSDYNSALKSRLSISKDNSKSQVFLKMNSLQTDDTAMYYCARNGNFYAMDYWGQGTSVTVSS VL: QIVLTQSPAIMSASLGERVTMTCTASSSVSSSFLHWYQQKPGSSPQLWIYSTKNLASGVPARFSGSGSGTSYSLTISSMEAEDAATYYCHQYHHSPYIYTFGGGTKLEIK
Met

Then KB001 mouse Fab VL T100W (Fab, V domains shown) VH: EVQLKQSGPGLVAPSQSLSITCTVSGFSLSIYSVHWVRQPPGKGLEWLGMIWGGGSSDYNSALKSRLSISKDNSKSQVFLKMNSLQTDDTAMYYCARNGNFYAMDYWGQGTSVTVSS VL: QIVLTQSPAIMSASLGERVTMTCTASSSVSSSFLHWYQQKPGSSPQLWIYSTSNLASGVPARFSGSGSGTSYSLTISSMEAEDAATYYCHQYHHSPYIYWFGGGTKLEIK ?
Not met

Follow-up item: KB001 mouse Fab VH Y59R (Fab, V domains shown) VH: EVQLKQSGPGLVAPSQSLSITCTVSGFSLSIYSVHWVRQPPGKGLEWLGMIWGGGSSDRNSALKSRLSISKDNSKSQVFLKMNSLQTDDTAMYYCARNGNFYAMDYWGQGTSVTVSS VL: QIVLTQSPAIMSASLGERVTMTCTASSSVSSSFLHWYQQKPGSSPQLWIYSTSNLASGVPARFSGSGSGTSYSLTISSMEAEDAATYYCHQYHHSPYIYTFGGGTKLEIK
Not met

Here is the next binder: KB001 mouse Fab VH S57H (Fab, V domains shown) VH: EVQLKQSGPGLVAPSQSLSITCTVSGFSLSIYSVHWVRQPPGKGLEWLGMIWGGGSHDYNSALKSRLSISKDNSKSQVFLKMNSLQTDDTAMYYCARNGNFYAMDYWGQGTSVTVSS VL: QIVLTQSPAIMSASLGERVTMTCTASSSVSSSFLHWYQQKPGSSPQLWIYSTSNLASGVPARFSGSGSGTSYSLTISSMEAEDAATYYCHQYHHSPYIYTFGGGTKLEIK
Met
